Taken from patent US9656990B2.

system name: human cathepsin F (Homo sapiens, UniProt Q9UBX1)
Sequence (Q9UBX1 271-484): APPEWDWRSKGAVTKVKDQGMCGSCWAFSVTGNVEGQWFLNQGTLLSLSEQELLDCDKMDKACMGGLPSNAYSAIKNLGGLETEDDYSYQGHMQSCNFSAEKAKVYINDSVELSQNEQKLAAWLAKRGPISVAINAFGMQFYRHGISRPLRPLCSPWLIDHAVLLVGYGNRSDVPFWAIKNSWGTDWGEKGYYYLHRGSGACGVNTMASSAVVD
measurement protocol: Cathepsin F Assay
Assay type: biochemical
particulars: IP from dose response curve; Z-Phe-Arg-AMC substrate, pH 5.5; read-out: hCat F (IP (nM))
Give measured IC50 for each item. Keep answers brief.
Lab book: enter the figure in nM, no units written.

Report IC50 for N#CC1(NC(=O)[C@@H]2CCCC[C@H]2c2nn(-c3ccccn3)cc2-c2ccc(N3CCS(=O)(=O)CC3)cc2)CC1 please.
232

Report IC50 for N#CC1(NC(=O)[C@@H]2CCCC[C@H]2c2nn(-c3ccc(Cl)cn3)cc2-c2ccc(N3CCS(=O)(=O)CC3)cc2)CC1 please.
272

Report IC50 for CC(C)[C@@H](C#N)NC(=O)[C@@H]1CCCC[C@H]1c1nn(-c2ccc(F)cc2)c(CO)c1-c1ccc(N2CCS(=O)(=O)CC2)cc1 please.
868

Report IC50 for CN=S1(=O)CCN(c2ccc(-c3cn(-c4ccc(F)cn4)nc3[C@@H]3CC[C@H](F)C[C@H]3C(=O)NC3(C#N)CC3)cc2)CC1 [Example 37] please.
1660

Report IC50 for N#CC1(NC(=O)[C@@H]2CCCC[C@H]2c2nn(-c3ccccc3F)cc2-c2ccc(N3CCS(=O)(=O)CC3)cc2)CC1 please.
946

Report IC50 for Cc1c(-c2ccc(N3CCS(=O)(=O)CC3)cc2)c([C@@H]2CCCC[C@H]2C(=O)NC2(C#N)CC2)nn1-c1ccc(F)cn1 please.
2980

###

system name: human cathepsin K (UniProt P43236, Y175D/V274L, species not given)
measurement protocol: Cathepsin K Assay
Assay type: biochemical
particulars: IP from dose response curve; Z-Leu-Arg-AMC substrate, pH 5.5; read-out: hrbCat K (IP (nM))
experimental endpoint: log10(IC50) (log10 of the value in nM)
# log10 transformed; quantity=IC50; unit=nM

Report log10(IC50) for CN=S1(=O)CCN(c2ccc(-c3cn(-c4ccc(F)cn4)nc3[C@@H]3CCCC[C@H]3C(=O)NC3(C#N)CC3)cc2)CC1 please.
0.17

Report log10(IC50) for N#CC1(NC(=O)[C@@H]2CCCC[C@H]2c2nn(-c3ccc(C(F)(F)F)nc3)cc2-c2ccc(N3CCS(=O)(=O)CC3)cc2)CC1 please.
0.12

Report log10(IC50) for N#CC1(NC(=O)C2CC(F)(F)CCC2c2nn(-c3ccc(F)cc3)cc2-c2ccc(N3CCS(=O)(=O)CC3)cc2)CC1 (racemic) please.
0.00

Report log10(IC50) for CNC(=O)N1CC(c2ccc(-c3cn(-c4ccc(F)cc4)nc3[C@@H]3CCCC[C@H]3C(=O)NC3(C#N)CC3)cc2)C1 please.
-0.15

Report log10(IC50) for N#CC1(NC(=O)[C@@H]2CCCC[C@H]2c2nn(-c3c(F)cccc3F)cc2-c2ccc(N3CCS(=O)(=O)CC3)cc2)CC1 please.
0.55

Report log10(IC50) for N#CC1(NC(=O)[C@@H]2CCC(F)(F)C[C@H]2c2nn(-c3ncccc3F)cc2-c2ccc(N3CCS(=N)(=O)CC3)cc2)CC1 please.
1.69

###

system name: human cathepsin K (UniProt P43236, Y175D/V274L, species not given)
measurement protocol: Cathepsin K Assay
Format: biochemical
particulars: IP from dose response curve; Z-Leu-Arg-AMC substrate, pH 5.5; read-out: hrbCat K (IP (nM))
Give measured IC50 for each item. Keep answers brief.
Lab book: enter the figure in nM, no units written.

Report IC50 for N#CN=S1(=O)CCN(c2ccc(-c3cn(-c4ccc(F)cc4)nc3[C@@H]3CCCC[C@H]3C(=O)NC3(C#N)CC3)cc2)CC1 [Example 19] please.
2.2

Report IC50 for C[C@@H](C#N)NC(=O)[C@@H]1CCC(F)(F)C[C@H]1c1nn(-c2ncccc2F)cc1-c1ccc(N2CCS(=O)(=O)CC2)cc1 [Example 34] please.
5.4

Report IC50 for CC(C)(O)c1ccc(-n2cc(-c3ccc(N4CCS(=O)(=O)CC4)cc3)c([C@@H]3CCCC[C@H]3C(=O)NC3(C#N)CC3)n2)cc1 [Example 97] please.
0.8
